Each recorded value in this set is attributed to BigSolDB 2.1.

MEASUREMENT_PARAMETERS: in dichloromethane, 288.15 K
MEASUREMENT_KIND: solubility (mole fraction)
# answer = number (no unit)

Form field: reported solubility (mole fraction) of Oc1ccccc1/C=N/CC/N=C/c1ccccc1O
0.0533

* * *

MEASUREMENT_PARAMETERS: in toluene, 313.15 K
MEASUREMENT_KIND: solubility (mole fraction)
Reply with just the number.

Fill in: solubility (mole fraction) of Oc1ccccc1/C=N/CC/N=C/c1ccccc1O is ___
0.0379

* * *

MEASUREMENT_PARAMETERS: in diethyl ether, 283.15 K
MEASUREMENT_KIND: solubility (mole fraction)

Entry Oc1ccccc1/C=N/CC/N=C/c1ccccc1O has what solubility (mole fraction)?
0.00193
